Measured GI50 on HCT-15 follows.
Your answer should be a plain number; it is taken to be in µM.

COc1ccc(Br)c(C(=O)N2CCc3ccccc32)c1N
29.2
CN1CN(c2ccccc2)C2(CCN(CCCCCCF)CC2)C1=O
54.5

# context switch: different compound, same GI50
Measured on HCT-15, COC(=O)c1ccc(C)cc1C1CN=NC12Cc1c(C)cccc1C2=O (stereo unspecified) has a documented GI50 of 28.6

* * *

Tested on: A498
Assay: NCI tumour cell line growth inhibition, 48 h
Calls of active or inactive are those of the source. No stated cut-off is given here; in the data, active = GI50 up to about 1.1 µM and inactive = higher.
Listing of recorded GI50 by entry.

Examples with answers:
C(=C/c1ccc2nc(-c3ccc(/C=C/C=N/NC4=NCCCN4)cc3)cn2c1)/C=N/NC1=NCCCN1
> 100 µM (inactive)
CC[C@@]1(O)C(=O)OCc2c1cc1n(c2=O)Cc2c-1nc1ccccc1c2/C=N\NC(=O)C(N)CS (stereo not given in full)
2.55 µM (inactive)
CC(C)OC(=O)c1cc(NC(=S)OC(C)C)ccc1Cl
25.9 µM (inactive)
O=[N+]([O-])c1cccc(/C=N\NS(=O)(=O)c2ccc(Cl)cc2)c1O
> 100 µM (inactive)
CN(CC(=O)O)c1ncc2c(n1)-c1ccccc1SC2
> 100 µM (inactive)

Measured on A498, CCCCCCCCCCCCCCCCCCNc1ccn(C2OC(COP(=O)(O)OCC3OC(n4cc(C)c(=O)[nH]c4=O)CC3O)C(O)C2O)c(=O)n1 (stereo not given) has a documented GI50 of 24.8 µM (inactive)

Measured on A498, CC(=O)Nc1ccc(/C=C/C(=O)c2sc(-c3cccnc3)nc2C)cc1 has a documented GI50 of > 100 µM (inactive)

Measured on A498, COC1=CC2(C=CC1=O)CCNC1=C2C(=O)c2nc[nH]c2C1=O (stereo not given) has a documented GI50 of > 100 µM (inactive)

Measured on A498, CC(C)=CC(=O)OC1C2C(C)C(=O)OC2C(O)C(C)C2C=CC(=O)C21C (stereo not given) has a documented GI50 of 2.05 µM (inactive)

Measured on A498, C[N+]1(CCCC[N+]2(C)CCCCCCC2)CCCCCCC1 has a documented GI50 of > 100 µM (inactive)
